# system-tested: HCV NS5B polymerase (Hepatitis C virus genotype 1b, UniProt P26663)
# Sequence (P26663 2420-3010): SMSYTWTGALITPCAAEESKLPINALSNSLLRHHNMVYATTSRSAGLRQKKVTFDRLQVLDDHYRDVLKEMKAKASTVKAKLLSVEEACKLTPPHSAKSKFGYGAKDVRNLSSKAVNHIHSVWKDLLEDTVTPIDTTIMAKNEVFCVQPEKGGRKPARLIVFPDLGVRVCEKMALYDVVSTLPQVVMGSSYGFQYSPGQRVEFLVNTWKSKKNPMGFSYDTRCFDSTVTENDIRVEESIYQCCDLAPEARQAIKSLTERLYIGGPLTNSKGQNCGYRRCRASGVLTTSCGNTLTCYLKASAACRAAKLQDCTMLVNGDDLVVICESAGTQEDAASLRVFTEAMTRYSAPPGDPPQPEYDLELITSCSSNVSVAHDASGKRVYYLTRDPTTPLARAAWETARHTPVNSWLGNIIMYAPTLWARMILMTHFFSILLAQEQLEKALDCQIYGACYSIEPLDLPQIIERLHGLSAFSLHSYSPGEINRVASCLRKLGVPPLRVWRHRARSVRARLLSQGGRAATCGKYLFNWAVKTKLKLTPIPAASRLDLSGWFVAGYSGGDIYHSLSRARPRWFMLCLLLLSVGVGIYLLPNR
pIC50: −log10 of the molar value.

| molecule | pIC50 |
| --- | --- |
| CC(C)CCn1nc(-c2ccccc2)c(O)c(C2=Nc3ccc(NS(C)(=O)=O)cc3S(=O)(=O)N2)c1=O | > 7.00 |
| CC(C)CCn1nc(-c2cccs2)c(O)c(C2=Nc3ccc(NC(=O)OC(C)C)cc3S(=O)(=O)N2)c1=O | 5.00 to 6.00 |
| CC(C)CCn1nc(-c2cccs2)c(O)c(C2=NS(=O)(=O)c3cc(N(C)S(C)(=O)=O)ccc3N2C)c1=O | 5.00 to 6.00 |
| CC(C)CCn1nc(-c2cccs2)c(O)c(C2=Nc3ccc(C4CCCS4(=O)=O)cc3S(=O)(=O)N2)c1=O (stereo not drawn) | 6.00 to 7.00 |
| CC(C)CCn1nc(C(C)(C)C)c(O)c(C2=Nc3ccc(NS(=O)(=O)C4CC4)cc3S(=O)(=O)N2)c1=O | 5.00 to 6.00 |
| COC(C)(C)CCn1nc(-c2cccs2)c(O)c(C2=NS(=O)(=O)c3cc(NS(C)(=O)=O)ccc3N2)c1=O | > 7.00 |
| O=c1c(C2=Nc3ccc(NS(=O)(=O)C4CC4)cc3S(=O)(=O)N2)c(O)c(-c2cccs2)nn1CCC1CC1 | > 7.00 |
| CC(C)(C)CCn1nc(-c2cccs2)c(O)c(C2=NS(=O)(=O)c3cc(N(COC(=O)C(C)(C)C)S(C)(=O)=O)ccc3N2)c1=O | 6.00 to 7.00 |
| CS(=O)(=O)Nc1ccc2c(c1)S(=O)(=O)N=C(c1c(O)c(-c3cccs3)nn(CCC3CCCC3)c1=O)N2 | > 7.00 |
